- Test system: SF-295
- ASSAY_PROCEDURE: NCI tumour cell line growth inhibition, 48 h
Calls of active or inactive are those of the source. Rule as the data show it: active = GI50 up to about 1.1 µM and inactive = higher.
Reported GI50 values for a set of molecules

Field: example entries. Status: answers known.
COc1cccc2c1C(=O)c1c(O)c3c(c(O)c1C2=O)C[C@@](O)(C(C)=O)C[C@@H]3OC1CC([N+]([O-])(Cc2ccccc2)Cc2ccccc2)C(O)C(C)O1 (stereo partly drawn)    1.19 µM (inactive)
CC(=O)CSc1c(-c2ccccc2)c(=O)n(-c2ccccc2)c(=S)n1-c1ccccc1    > 100 µM (inactive)
CCCCCC1=C/C(=C\c2[nH]c(-c3ccc[nH]3)cc2OC)N=C1C    < 0.01 µM (active)
N[C@H]1CCCC[C@@H]1N1C(=O)c2ccccc2C1(O)c1ccc(Cl)cc1 (stereo partly drawn)    16 µM (inactive)
C/C(=N/O)C1CC=C(S(=O)(=O)c2ccccc2)C1 (stereo not drawn)    > 100 µM (inactive)
COC1C(O)C(O[C@H]2CC[C@@]3(C)C(CC[C@@H]4[C@@H]3CC[C@]3(C)[C@@H](C(C)OC5OC(CO)C(O)C(O)C5O)CC[C@]43O)C2)OC(C)C1OC1OC(CO)C(O)C(O)C1O (stereo partly drawn)    > 100 µM (inactive)

Q. Endpoint output: GI50 of CCOC(=O)[C@@]1(C(C)=O)CC(C)=C(C)C[S@@+]1[O-] . Value?
A. > 100 µM (inactive)

Q. Endpoint output: GI50 of O=c1c2ccccc2nc2n1CCc1c-2[nH]c2ccccc12 . Value?
A. 14.1 µM (inactive)
